- target.entity: T1, DFNB31_1, Q9P202
- T1 sequence (Q9P202 135-233, limits assumed, looked up): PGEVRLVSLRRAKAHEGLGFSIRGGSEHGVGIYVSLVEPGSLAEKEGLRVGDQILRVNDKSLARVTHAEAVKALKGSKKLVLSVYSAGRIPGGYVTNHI
- experiment: holdup assay
- Parameters: key: below the threshold = too weak to quantify, mostly under pKd 3.1 to 4
- condition.context: plain residues with an end cap or a label only (N-terminal biotin on a linker: ado-ado)
measured.property: pKd

GFGEERESIL [KIDINS220, Q9ULH0]: below the threshold
EDLTKNHDEL [RCN1, Q15293]: below the threshold
QKNKDKEYYV [NRXN3_rs746444206, Q9Y4C0]: below the threshold
